Cited source: ChEMBL document CHEMBL1154545

Entries with their measured log10 IC50, system UniProt:P08069:
Use the decimal logarithm of IC50 (nM).

INSERT INTO results (molecule, measurement) VALUES
  ('COc1cc2c(cc1Nc1nc(N3CCc4ccccc43)c3cc[nH]c3n1)N(C(=O)CN(C)C)CCC2', -0.30),
  ('COc1cc(N2CCN(C(C)C)CC2)ccc1Nc1nc(Nc2cc(F)cc(F)c2C(N)=O)c2cc[nH]c2n1', -0.10),
  ('COc1cc(N2CCN(C(C)C)CC2)ccc1Nc1nc(Nc2ccc(F)c(F)c2C(N)=O)c2cc[nH]c2n1', 0.11),
  ('COc1cc(N2CCN(C(C)C)CC2)ccc1Nc1nc(Nc2ccc3ncccc3c2)c2cc[nH]c2n1', 1.11),
  ('CCCN1CCC(c2ccc(Nc3nc(Nc4ccsc4C(N)=O)c4cc[nH]c4n3)c(OC)c2)CC1', 0.11);

Answer for every listed entry: what is its log10 IC50? The entries follow.
1. COc1cc(N2CCN(C(C)C)CC2)ccc1Nc1nc(N2CCc3ccccc32)c2cc[nH]c2n1
2. COc1cc2c(cc1Nc1nc(Nc3cccc4c3C(=O)NC4)c3cc[nH]c3n1)N(C(=O)CN(C)C)CC2
3. COc1cc(N2CCN(C(C)C)CC2)ccc1Nc1nc(Nc2ccc(F)cc2C(N)=O)c2cc[nH]c2n1 [GSK-1220512A]

[1.00, -0.10, -0.05]
